Data provenance: PubChem BioAssay (NCI)

# System: MDA-MB-231 breast
# assay summary: NCI-60 one-dose screen, 48 h (100 = growth as untreated, 0 = no growth, -100 = all killed)
# details: 10 µM unless noted
# Protocol: Cells are grown in 96 well plates and exposed to the test compound for 48 hours. Compounds are tested at a single concentration, which is 10^-5 M for most compounds. The reported endpoint is percent growth (GI% or GIPRCNT), where numbers from 0 - 100% represent growth inhibition, and numbers from -100% - 0 represent cell death. For example, a value of 40 represents 60% growth inhibition. A value of 0 means no net growth occurred over the course of the experiment. […]
About 83,000 compounds went through this panel and 20% of them were active in at least one assay; those are over-represented in the sample as a whole.
measured attribute: growth (%)
// note: answer is a bare numeric in %

Some compounds with recorded growth:
{"compound": "O=C(O)Cc1cccc2ccccc12", "unit abbreviation": "%", "growth": 123}
{"compound": "CC(CO)(CO)C(=O)O", "unit abbreviation": "%", "growth": 108}
{"compound": "ClCc1cccc2c(CCl)cccc12", "unit abbreviation": "%", "growth": 92.3}
{"compound": "CC1(c2ccccc2)CO1 (stereo not drawn)", "unit abbreviation": "%", "growth": 108}

Task: Query (compound): CCCC(OC(C)=O)c1ccc2c(c1)OCO2 (stereo not drawn) ; field requested: growth
Output: 113

Task: Which growth value is on record for ClCC(Cl)[C@@H]1CC2C=CC1C2 (stereo partly drawn) ?
Output: 96.8

Task: What does the data say about its growth? Entry: CCC1CCC(C)NC1 (stereo not drawn)
Output: 120

Task: Given the entry O=C(c1cccc(C(=O)c2ccc3c4c(cccc24)C(=O)N(c2ccccc2)C3=O)c1)c1ccc2c3c(cccc13)C(=O)N(c1ccccc1)C2=O , report its measured growth.
Output: 91.1

----------
# System: EKVX NSCLC
# assay summary: NCI-60 one-dose screen, 48 h (100 = growth as untreated, 0 = no growth, -100 = all killed)
# details: 10 µM unless noted
# Protocol: Growth inhibition of the EKVX human Non-Small Cell Lung tumor cell line is measured as a screen for anti-cancer activity. Cells are grown in 96 well plates and exposed to the test compound for 48 hours. Compounds are tested at a single concentration, which is 10^-5 M for most compounds. The reported endpoint is percent growth (GI% or GIPRCNT), where numbers from 0 - 100% represent growth inhibition, and numbers from -100% - 0 represent cell death. […]
The panel holds about 83,000 compounds, 20% with a hit somewhere; the sample as a whole holds those more often. Active and inactive are the calls of the source. Rule for the calls: active = growth percent below 10; inactive = the rest.
measured attribute: growth

Worked set:
{"molecule": "Cc1cccc(-[n+]2noc(N)n2)c1", "target or system": "EKVX NSCLC", "growth": "67.9% (inactive)"}
{"molecule": "CCCCN(C=S)CCCC", "target or system": "EKVX NSCLC", "growth": "103% (inactive)"}

Task: For C=CCS(C)(=O)=O , what is its reported growth?
Output: 91.3% (inactive)

Task: Need growth, item CSc1cnc2ccccc2n1
Output: 103% (inactive)

Task: Name the recorded growth for COC(=O)c1ccccc1C(=O)c1c(C)cc(C)cc1C .
Output: 109% (inactive)

Task: Recorded growth for COCC(N)=O , please?
Output: 109% (inactive)

Task: Reported growth, molecule NNC(=O)N/N=C1\C(=O)N(c2nccs2)C(=O)C(=O)C1c1nc2ccccc2s1 (centres undefined) : ____
Output: 84.8% (inactive)

----------
# Test system: M14 melanoma
# assay summary: NCI-60 one-dose screen, 48 h
# details: 10 µM unless noted
The panel holds about 83,000 compounds, 20% with a hit somewhere; the sample as a whole holds those more often. Active and inactive are the calls of the source. How the source made its calls: active means growth percent below 10; inactive means the rest.
# output must be one of active, inactive

Consider the following illustrative entries.
{"molecule": "NC(=S)c1c(N)n(C2OC(CO)C(O)C2O)c2ncnc(N)c12 (configuration not stated)", "class label": "active"}
{"molecule": "S=C(NCc1ccccc1)N1CCC(CCCC2CCN(C(=S)NCc3ccccc3)CC2)CC1", "class label": "inactive"}
{"molecule": "O=C(Oc1ccccc1Cl)c1ccc(Cl)cc1Cl", "class label": "inactive"}

Task: # outcome recorded in this test, key = CN1C(=O)NC(c2ccc(Cl)cc2)(c2ccc(Cl)cc2)C1=O
Output: inactive

Task: Write down the call the test reported for this molecule. Item: CCCCCCCCCCCCCCCCCC(=O)NCCNC(=O)CCCCCCCCCCCCCCCCC
Output: inactive

Task: What is the recorded call for this molecule in the test? CCCc1cccc(CCC)c1NC(=O)Nc1cc(Cl)cc(Cl)c1
Output: inactive

Task: // param item: Cc1ccc(NCN2C(=O)c3ccccc3C2=O)c(C)n1 ; yields the recorded call
Output: inactive

Task: Could you kindly confirm the outcome this assay logged for S=C=Nc1ccc2ccccc2c1 ?
Output: inactive

Task: What was the test verdict on O=C(O)Cc1cccc2ccccc12 ?
Output: inactive

Task: Short answer needed: outcome of this test for Clc1cccc(Cl)c1C1CSc2ccccc2N=C1c1ccccc1 (configuration not stated) ?
Output: inactive

Task: Query: recorded result category for CC1CC(C)S(=O)(=O)C1 (configuration not stated) in this test
Output: inactive

Task: Test call for this molecule, please: CN(CCCN(C)CCC1CCCCC1)CCC1CCCCC1
Output: active

----------
# Tested on: HCT-15 colon
# assay summary: NCI-60 one-dose screen, 48 h (100 = growth as untreated, 0 = no growth, -100 = all killed)
# details: 10 µM unless noted
# Method: Growth inhibition of the HCT-15 human tumor cell line is measured as a screen for anti-cancer activity. Cells are grown in 96 well plates and exposed to the test compound for 48 hours. Compounds are tested at a single concentration, which is 10^-5 M for most compounds. The reported endpoint is percent growth (GI% or GIPRCNT), where numbers from 0 - 100% represent growth inhibition, and numbers from -100% - 0 represent cell death. For example, a value of 40 represents 60% growth inhibition. […]
This is part of a sample that, as a whole, favours compounds with a hit. Of some 83,000 tested, about 20% had one in any assay.
Entries and their growth values follow.
Please state the figure in %; there is no need to write the unit.

{"compound": "CCN(CC)CCOC(=O)Nc1c(C(C)C)cccc1C(C)C", "unit abbreviation": "%", "growth": 106}
{"compound": "S=c1nc(-c2ccccn2)c(-c2ccccn2)n[nH]1", "unit abbreviation": "%", "growth": 100}
{"compound": "O=C(Nc1ccccc1)c1ccco1", "unit abbreviation": "%", "growth": 105}
{"compound": "CCCCOC(=O)c1ccccc1O", "unit abbreviation": "%", "growth": 104}

Task: What does the record list as growth for CC1CC(C)S(=O)(=O)C1 (stereo not given) ?
Output: 103

----------
# Tested on: BT-549 breast
# assay summary: NCI-60 one-dose screen, 48 h (100 = growth as untreated, 0 = no growth, -100 = all killed)
# details: 10 µM unless noted
About 83,000 compounds went through this panel and 20% of them were active in at least one assay; those are over-represented in the sample as a whole.
Listing of recorded growth by entry.
Provide the reading as a plain figure in %.

Sample records with growth:
{"molecule": "CCC1CCC(C)NC1 (configuration not stated)", "target or system": "BT-549 breast", "measured attribute": "growth", "unit abbreviation": "%", "quantitative readout": 101}
{"molecule": "N=C(N)c1nn(C2OC(CO)C(O)C2O)c2nc[nH]c(=O)c12 (configuration not stated)", "target or system": "BT-549 breast", "measured attribute": "growth", "unit abbreviation": "%", "quantitative readout": -14.8}
{"molecule": "CN1CCCN(C(c2ccccc2)c2ccc(Br)cc2)CC1 (configuration not stated)", "target or system": "BT-549 breast", "measured attribute": "growth", "unit abbreviation": "%", "quantitative readout": 63.3}
{"molecule": "COc1cc(C(=O)NC(=S)NCc2ccncc2)cc(OC)c1OC", "target or system": "BT-549 breast", "measured attribute": "growth", "unit abbreviation": "%", "quantitative readout": 102}
{"molecule": "N#CCCN1C(=O)CCC1C(=O)O (configuration not stated)", "target or system": "BT-549 breast", "measured attribute": "growth", "unit abbreviation": "%", "quantitative readout": 107}

Task: Param readout = growth; param system = BT-549 breast; param query = CCN(CC)CCCC(C)NC(=S)N/N=C(\C)c1ccccn1 (configuration not stated) ; response: value
Output: 65.5

Task: Form entry - test system: BT-549 breast; read-out: growth; molecule: CN(C)c1ncnc2c1cnn2C
Output: 99.9

Task: Recall the recorded growth for Oc1cc(O)c2c(c1)O[C@H](c1ccc(O)c(O)c1)[C@@H](O)C2 with BT-549 breast and state it.
Output: 100

Task: Form field: growth recorded for CCCOCc1cn[nH]n1 with BT-549 breast (enter value)
Output: 109

Task: Quick check: growth on BT-549 breast, item NC(=S)N/N=C/c1ccc(OC(=O)COc2ccccc2)cn1 ?
Output: 40.9

Task: Kindly state the measured growth obtained for O=c1cc(C(F)(F)F)[nH]c(=S)[nH]1 with BT-549 breast.
Output: 122

Task: growth of O=C(O)Cc1cccc2ccccc12 on BT-549 breast?
Output: 107

Task: Hello, I am looking for reported growth with BT-549 breast for CC12CCC3c4ccc(O)cc4CCC3C1CCC2=O (configuration not stated) . Could you help?
Output: 89.2

Task: State its growth on BT-549 breast: CC1(C)OC(=O)CC1=O
Output: 98.1

Task: Item CS(=O)CC(=N\O)/C(CS(C)=O)=N\O (configuration not stated) with BT-549 breast - growth?
Output: 106

Task: Observed growth on BT-549 breast for O=C(O)Cc1ccccn1 , please.
Output: 101

Task: API: value(readout= growth, system= BT-549 breast, query= O=C(OCc1ccccc1)n1nnc2ccccc21 )
Output: 100
